Hello, the source for this data is ChEMBL document CHEMBL3808295, in case you need it.

Target: UniProtKB P07099
Sequence (whole entry): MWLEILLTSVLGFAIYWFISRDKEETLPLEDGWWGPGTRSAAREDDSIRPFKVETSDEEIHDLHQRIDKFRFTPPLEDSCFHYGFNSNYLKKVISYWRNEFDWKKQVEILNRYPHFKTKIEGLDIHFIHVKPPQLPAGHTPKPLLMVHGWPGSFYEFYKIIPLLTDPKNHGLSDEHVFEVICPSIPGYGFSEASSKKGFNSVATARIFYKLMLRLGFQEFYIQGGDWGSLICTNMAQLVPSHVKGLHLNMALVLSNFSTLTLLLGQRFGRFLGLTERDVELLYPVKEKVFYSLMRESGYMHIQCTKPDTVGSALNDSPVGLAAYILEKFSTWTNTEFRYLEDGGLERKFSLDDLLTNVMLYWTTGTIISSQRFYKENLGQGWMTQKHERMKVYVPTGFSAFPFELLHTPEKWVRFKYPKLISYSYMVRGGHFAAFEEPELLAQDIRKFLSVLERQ
Test: Inhibition of microsomal epoxide hydrolase in pooled human liver microsomes assessed as enzyme activity using styrene oxide as substrate at 10 uM incubated for 10 mins by UV-HPLC analysis relative to control
Parameters: scale not given: the % may be the effect or the level left
Property: Activity (%)
Give just the number in %; leave the unit off.

As a guide, the following entries are already answered.
CCCC(CCC)C(N)=O    50.9
CC[C@H](NC(=O)NCCCc1ccccc1)c1ccccc1    106
O=C(NCCCc1ccccc1)NCc1ccccc1    105
C[C@H](NC(=O)NCCCc1ccccc1)c1ccccc1    84.6
O=C(NCCCc1ccccc1)N[C@H]1CCc2ccccc21    112
CCC(C)NC(=O)NCCCc1ccccc1 (racemic)    102

Next, consider the following compound.
Request the reported Activity associated with O=C(NCCCc1ccccc1)N[C@@H]1CCc2ccccc21
110
